Test: small-molecule binders of probe aNOTCH3, primary screen, biochemical, small-molecule microarray, 635/667 nm fluorescence (AID 1120);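 also: probe is a biotin-tagged antibody raised against NOTCH3 rather than NOTCH3 protein; score merges spot fluorescence near 667 nm with spot signal to noise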
Conditions: higher = more signal
measured.attribute: composite z-score
Keep it simple and answer with nothing but the number.

Observe how each entry below is paired with its result.
• [N-]=[N+]=Nc1ccccc1C[C@@]1(C(N)=O)N=C(c2ccc(OCCCO)cc2)O[C@@H]1c1ccccc1 = -0.0014
• CN(C)C(=O)[C@@]1(Cc2ccccc2)N=C(c2ccc(OCCCO)cc2)O[C@H]1c1ccccc1CN=[N+]=[N-] = 0.329
• CN1C(=O)C2C(C1=O)C1C=C(CCCO)C2C(c2ccc(CN3CCCC3)cc2)N1C (stereo not given) = -0.068
• O=C1C[C@]2(c3ccc([N+](=O)[O-])cc3)C(=O)N(CCN3CCOCC3)c3cc(CO)ccc3[C@H]2N1CC12CC3CC(CC(C3)C1)C2 = -0.185
• CO[C@@H]1COC(=O)CC=C[C@@H](C)COC(=O)[C@H](COCc2ccccc2)NC(=O)CC=C[C@H]1C = -0.111
• CCOC(=O)C[C@H]1[C@H](OC(=O)c2cc3ccccc3oc2=O)[C@@H](NC(=O)c2ccc3ccccc3n2)c2cc(OCCCO)ccc2N1C(=O)c1ccccc1 = 0.154
• O=C(CS)NCCCCCNC(=O)[C@H]1C[C@H]2C(=O)N3CCC[C@H]3C(=O)N2[C@H]1c1cccc(OCCO)c1 = 0.121
• C=CCNC(=O)[C@H]1[C@@H]2C(=O)O[C@@H](c3ccccc3)[C@@H](c3ccccc3)N2[C@@H](c2ccc(O)cc2)[C@]12C(=O)N(C(=O)OCCOC)c1ccc(C#CC3=CCCCC3)cc12 = 1.27
• CCCCCN1CC=CC23O[C@@H]4C=CCOC(=O)[C@@H]4[C@H]2C(=O)N(CCCCCCO)[C@@H]3C1=O (stereo not given in full) = -0.306
• CCOC(=O)[C@H](Cc1ccccc1)NC(=O)CCC1CC(OC(=O)NCc2ccc3c(c2)OCO3)CC2(CCCC(COC(=O)NCc3cccc(C(F)(F)F)c3)O2)O1 (stereo not given in full) = 0.0224

Now for another entry.
Q. Recorded composite z-score for O=C(NN=C1C[C@@H](O)[C@@H](O)[C@@H]2[C@@H]3C(=O)N(c4ccc(F)cc4F)C(=O)[C@@H]3CC[C@@H]12)OCc1ccccc1 , please?
A. 0.0952

* * *

# z-score annotations
Assay: A549 lung cancer cell viability effects, profiling panel, resazurin fluorescence, 24 h, PK04 Diversity Set (AID 1171); also: test concentration not given here
Details: higher = more signal, called active from +8 up or from −8 down
Keep it simple and answer with nothing but the number.

Observe how each entry below is paired with its result.
• Cc1ccc(S[C@]2(C(=O)NCC(F)(F)F)CC(=O)N(Cc3ccccc3Cl)[C@@H]2c2ccc(CO)cc2I)cc1 = 0.318
• CC1CC/C=C\[C@H]2OC34C=CCN(Cn5nnc6ccccc65)C(=O)[C@H]3N(CCO)C(=O)[C@@H]4C2C(=O)O1 (some centres undefined) = 0.676
• CCOC(=O)[C@H](Cc1ccccc1)NC(=O)CCC1CC(OC(=O)NCc2ccc3c(c2)OCO3)CC2(CCCC(COC(=O)NCc3ccccc3)O2)O1 (some centres undefined) = 0.98
• O=C1C[C@@H](O)[C@@H](O)[C@@H]2[C@@H]3C(=O)N(C4CCCCC4)C(=O)[C@@H]3CC[C@H]12 = 0.386
• CC(=O)OC[C@H]1O[C@H](CCON=C(C)CCC(=O)OC[C@H]2O[C@H](C#Cc3ccccc3)C=C[C@@H]2Oc2ccc(C)cc2)C=C[C@@H]1OC(C)=O = 0.016
• CN(C)CCCNC(=O)[C@@H]1c2ccccc2C(=O)N(Cc2ccccc2)[C@H]1c1ccc(CO)cc1 = 0.534
• COC(=O)[C@@H]1CC[C@H](C)[C@@H](c2ccc(C)cc2)N1C(=O)c1ccc(C=NOC(C)CN2CCCCc3nc(C)c(C)cc32)cc1 (some centres undefined) = 2.21
• CCOC(=O)NN=C1C[C@@H](O)[C@@H](O)[C@@H]2[C@@H]3C(=O)N(C4CCCCC4)C(=O)[C@@H]3CC[C@@H]12 = -0.361
• CCCNC(=O)OC[C@H]1O[C@H](CCON=C[C@@H](OC)[C@H](C)C=CCC(=O)OC)C=C[C@@H]1Oc1ccc(OC)cc1 = 1.2
• O=C1O[C@@H](c2ccccc2)[C@@H](c2ccccc2)N2[C@@H](c3ccc(OCCO)cc3)[C@]3(C(=O)Nc4ccccc43)[C@@H](C(=O)N3CCN(c4ncccn4)CC3)[C@H]12 = 0.42

Q. Recorded z-score for COC(=O)CC=C[C@@H](C)[C@@H](C=NO[C@@H](C)c1cc(-c2c(C)cc(C)cc2C)no1)OC , please?
A. 0.16

Q. Recorded z-score for O=C1[C@H]2[C@H]3[C@H](O)[C@H](O)CC(=NOC[C@@H](O)COCc4ccco4)[C@H]3CC[C@H]2C(=O)N1c1cccc(Oc2ccccc2)c1 , please?
A. 0.26

Q. Recorded z-score for CN(C)C(=O)[C@@]1(Cc2ccccc2)N=C(c2ccc(OCCCO)cc2)O[C@H]1c1ccccc1CN=[N+]=[N-] , please?
A. -0.348

Q. Recorded z-score for C[C@@H]1CC[C@H]2C(=O)O[C@H](COc3ccc(C(C)(C)C)cc3)CN2[C@H]1c1ccc(Br)cc1 , please?
A. 1.19
